- assayed-system: T1, integrin αVβ5 (UniProt P06756 31-992; P18084 24-719)
- T1 construct: Coated on the ELISA plate
- T1 sequence (P06756 31-992, chain 1 of 2): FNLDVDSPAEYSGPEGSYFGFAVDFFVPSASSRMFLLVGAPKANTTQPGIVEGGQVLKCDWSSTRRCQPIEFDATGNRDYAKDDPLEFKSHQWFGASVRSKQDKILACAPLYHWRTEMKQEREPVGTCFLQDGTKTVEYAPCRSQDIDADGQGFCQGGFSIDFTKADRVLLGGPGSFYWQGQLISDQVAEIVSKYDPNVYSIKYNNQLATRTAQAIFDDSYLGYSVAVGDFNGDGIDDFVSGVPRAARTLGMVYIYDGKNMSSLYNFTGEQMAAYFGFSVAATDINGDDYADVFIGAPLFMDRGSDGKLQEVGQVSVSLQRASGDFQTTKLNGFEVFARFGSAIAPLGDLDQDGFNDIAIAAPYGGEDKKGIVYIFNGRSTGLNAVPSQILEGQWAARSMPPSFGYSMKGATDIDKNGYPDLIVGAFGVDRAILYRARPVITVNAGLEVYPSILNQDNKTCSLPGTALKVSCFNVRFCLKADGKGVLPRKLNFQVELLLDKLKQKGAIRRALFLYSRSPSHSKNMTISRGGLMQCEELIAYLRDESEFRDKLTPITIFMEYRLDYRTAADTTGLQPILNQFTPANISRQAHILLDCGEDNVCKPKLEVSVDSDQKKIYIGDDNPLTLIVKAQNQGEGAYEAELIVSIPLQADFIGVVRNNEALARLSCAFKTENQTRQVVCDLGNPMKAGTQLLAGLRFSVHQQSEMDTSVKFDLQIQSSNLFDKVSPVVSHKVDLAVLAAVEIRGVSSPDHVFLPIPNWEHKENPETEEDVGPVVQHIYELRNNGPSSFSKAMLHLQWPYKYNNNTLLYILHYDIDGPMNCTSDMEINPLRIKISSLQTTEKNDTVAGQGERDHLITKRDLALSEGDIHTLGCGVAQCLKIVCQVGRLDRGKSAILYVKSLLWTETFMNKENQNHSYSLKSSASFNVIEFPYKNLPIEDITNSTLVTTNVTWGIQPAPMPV
- T1 sequence (P18084 24-719, chain 2 of 2): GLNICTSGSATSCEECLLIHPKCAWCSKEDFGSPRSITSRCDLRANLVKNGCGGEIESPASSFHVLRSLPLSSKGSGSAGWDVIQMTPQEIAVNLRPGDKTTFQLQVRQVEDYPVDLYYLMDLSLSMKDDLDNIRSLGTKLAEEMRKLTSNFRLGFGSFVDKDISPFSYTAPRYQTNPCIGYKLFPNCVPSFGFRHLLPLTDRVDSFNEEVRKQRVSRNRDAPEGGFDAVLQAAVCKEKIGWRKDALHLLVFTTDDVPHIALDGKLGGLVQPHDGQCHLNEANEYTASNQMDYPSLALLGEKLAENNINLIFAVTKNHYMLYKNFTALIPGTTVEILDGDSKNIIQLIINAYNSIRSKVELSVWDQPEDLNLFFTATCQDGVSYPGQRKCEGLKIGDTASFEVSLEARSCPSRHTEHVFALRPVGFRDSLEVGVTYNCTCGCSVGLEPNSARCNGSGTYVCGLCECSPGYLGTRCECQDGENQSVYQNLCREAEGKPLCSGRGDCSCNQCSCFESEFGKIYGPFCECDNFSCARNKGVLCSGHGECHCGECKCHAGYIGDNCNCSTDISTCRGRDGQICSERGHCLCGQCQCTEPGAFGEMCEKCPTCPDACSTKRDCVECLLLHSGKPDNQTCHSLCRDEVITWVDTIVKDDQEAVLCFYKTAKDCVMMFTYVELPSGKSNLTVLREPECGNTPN
- assay-explanation: ELISA, coated integrin, anti-MICA-HRP

>  <binder>
soluble MICA generated from pKK130 (loop 1 extended 5.1sp, loop 3 extended 5.3sp) (designed binder, From pKK115 (from pKK46: His6, Glu125); secreted by 293T cells; also called 1-5.1sp/3-5.3sp) HHHHHHEPHSLRYNLTVLSWDGSVQSGFLTEVHLDGQPFLRCDRQKCRAKPQGQWAEDVLGNKTWDRETRDLTGNGKDLRMTLAHIKDQKEGLHSLQEIRVCEIHEDNSTRSSQHFYYDGELFLSQNLETEEWTMPQSSRAQTLAMNVRNFLKEDAMKTKTHYHAMHADCLQELRRYLKSGVVLRRTVPPMVNVTSGGSGGGSVTRGDTFTQSSGGSGGGVTCRASGFYPWNITLSWRQDGVSLSHDTQQWGDVLPDGNGTYQTWVATRISGGSGGGSHLARGDDLTYSGGSGGGCYMEHSGNHSTHPVPSGK

>  <αvβ5 signal / OD>
0.832

$$$$
>  <binder>
soluble MICA generated from pKK128 (loop 1 extended 5.1sp, loop 3 extended 3.2sp) (designed binder, From pKK115 (from pKK46: His6, Glu125); secreted by 293T cells; also called 1-5.1sp/3-3.2sp) HHHHHHEPHSLRYNLTVLSWDGSVQSGFLTEVHLDGQPFLRCDRQKCRAKPQGQWAEDVLGNKTWDRETRDLTGNGKDLRMTLAHIKDQKEGLHSLQEIRVCEIHEDNSTRSSQHFYYDGELFLSQNLETEEWTMPQSSRAQTLAMNVRNFLKEDAMKTKTHYHAMHADCLQELRRYLKSGVVLRRTVPPMVNVTSGGSGGGSVTRGDTFTQSSGGSGGGVTCRASGFYPWNITLSWRQDGVSLSHDTQQWGDVLPDGNGTYQTWVATRISGGSGGGSTSRGDHPRTQSGGSGGGCYMEHSGNHSTHPVPSGK

>  <αvβ5 signal / OD>
1

$$$$
>  <binder>
soluble MICA generated from pKK46 (loop 1 insert extended 5.1sp) (designed binder, From pKK34 (His6, Glu125); secreted by 293T cells; also called 1-5.1sp) HHHHHHEPHSLRYNLTVLSWDGSVQSGFLTEVHLDGQPFLRCDRQKCRAKPQGQWAEDVLGNKTWDRETRDLTGNGKDLRMTLAHIKDQKEGLHSLQEIRVCEIHEDNSTRSSQHFYYDGELFLSQNLETEEWTMPQSSRAQTLAMNVRNFLKEDAMKTKTHYHAMHADCLQELRRYLKSGVVLRRTVPPMVNVTSGGSGGGSVTRGDTFTQSSGGSGGGVTCRASGFYPWNITLSWRQDGVSLSHDTQQWGDVLPDGNGTYQTWVATRICQGEEQRFTCYMEHSGNHSTHPVPSGK

>  <αvβ5 signal / OD>
0.66

$$$$

Values compiled from patent US20150165065A1.
